Test system: Simplexvirus
Test Protocol: Antiviral activity against Herpes simplex virus
Type: functional, organism-based
pIC50: −log10 of the molar value.
In this section, each of the compounds is paired with its reported pIC50.

Compound: N#Cc1cn([C@@H]2O[C@H](CO)[C@@H](O)[C@@H]2F)c2ncnc(N)c12
Experimental Target: Simplexvirus
pIC50: 6.33
//
Compound: O=C(NCc1ccc(Cl)cc1)c1cnc2ccc(CCCO)cc2c1O
Experimental Target: Simplexvirus
pIC50: 4.96
//
Compound: Cn1cnc2c(NCc3ccccc3)nc(NCCO)nc21
Experimental Target: Simplexvirus
pIC50: 4.00
//
Compound: Nc1ncnc2c1c(Br)cn2COC(CO)CO
Experimental Target: Simplexvirus
pIC50: 5.74
//
Compound: Nc1ncnc2c1c(Br)cn2COCCO
Experimental Target: Simplexvirus
pIC50: 4.80
//
Compound: Cc1ccc(Cn2c(N)c(C#N)c3c(N)ncnc32)cc1
Experimental Target: Simplexvirus
pIC50: 4.22
//
Compound: Nc1ccn(C[C@@H](CO)OCP(=O)(O)O)c(=O)n1 (stereo in doubt; form 1)
Experimental Target: Simplexvirus
pIC50: 5.48
//
Compound: N#Cc1cn([C@@H]2O[C@H](CO)[C@@H](O)[C@H]2O)c2ncnc(N)c12
Experimental Target: Simplexvirus
pIC50: 4.42
//
Compound: O=C(NCc1ccc(Cl)cc1)c1cnc2c(F)cccc2c1O
Experimental Target: Simplexvirus
pIC50: 4.89
//
Compound: O=C(NCc1ccc(Cl)cc1)c1cnc2ccc(C#CCO)cc2c1O
Experimental Target: Simplexvirus
pIC50: 4.70
//
Compound: CCCCCCCCCCCCCCCCOCCCOP1(=O)CO[C@@H](CN2CCC(N)=NC2=O)CO1 (some centres not stated)
Experimental Target: Simplexvirus
pIC50: 7.40
//
Compound: CCCCCCCCCCCCCCCCCCOCCOP(=O)(O)CO[C@H](CO)Cn1ccc(N)nc1=O
Experimental Target: Simplexvirus
pIC50: 9.00

###

Tested on: Human gammaherpesvirus 8
Test Protocol: Antiviral activity against Human herpesvirus 8
Assay type: functional, organism-based
pIC50: −log10 of the molar value.
Reported Endpoint: pIC50

Smiles Structure: Nc1ncnc2c1ncn2/C=C1/CC1(CO)CO
Reported Endpoint: pIC50
Obs Value: 4.24
//
Smiles Structure: Nc1ccn(/C=C2/CC2(CO)CO)c(=O)n1
Reported Endpoint: pIC50
Obs Value: 3.71
//
Smiles Structure: Nc1nc(N)c2ncn(/C=C3\CC3(CO)CO)c2n1
Reported Endpoint: pIC50
Obs Value: 3.78
//
Smiles Structure: Nc1nc2c(ncn2/C=C2\CC2(CO)CO)c(=O)[nH]1
Reported Endpoint: pIC50
Obs Value: 3.72

###

In this section, each of the compounds is paired with its reported IC50.
Tested on: Human alphaherpesvirus 1
Test Protocol: Antiviral activity against Herpes simplex virus 1
Type: functional, organism-based
Condition Summary: Human alphaherpesvirus 1

Compound: CCc1nn([C@H]2C[C@H](O)[C@@H](CO)S2)c(=O)nc1O
IC50: 120000 nM
--
Compound: CCOC(=O)Cc1c(N)nc(N)n(CCOCP(=O)(O)O)c1=O
IC50: 1.2 nM
--
Compound: Nc1nc(O)cc(OCCOCP(=O)(O)O)n1
IC50: 0.0362 nM
--
Compound: N#CCc1c(N)nc(N)nc1OCCOCP(=O)(O)O
IC50: 1.2 nM
--
Compound: CN(C)c1cc(O)nc(N)n1
IC50: 2.6 nM
--
Compound: Nc1nc2c(ncn2/C=C2/CC2(CO)CO)c(=O)[nH]1 [FILOCICLOVIR]
IC50: 380000 nM
--
Compound: Cc1cn(/C=C2/CC2(CO)CO)c(=O)[nH]c1=O
IC50: 420000 nM
--
Compound: CC(=O)OC[C@H]1S[C@@H](n2nc(C)c(=S)[nH]c2=O)C[C@@H]1OC(C)=O
IC50: 8000 nM
--
Compound: Nc1nc(N)c(CC(=O)O)c(OCCOCP(=O)(O)O)n1
IC50: 1.2 nM
--
Compound: Nc1ncnc2c1ncn2/C=C1/CC1(CO)CO
IC50: 404000 nM
--
Compound: Nc1nc(NC2CC2)cc(=O)n1CCOCP(=O)(O)O
IC50: 0.0526 nM
--
Compound: CN(C)c1cc(OCCOCP(=O)(O)O)nc(N)n1
IC50: 1.37 nM
--
Compound: Nc1nc(N)n(CCOCP(=O)(O)O)c(=O)c1Cc1ccccc1
IC50: 1.2 nM
--
Compound: Nc1nc(N)c2ncn(/C=C3\CC3(CO)CO)c2n1
IC50: 381000 nM
--
Compound: Nc1nc(N)c(-c2ccccc2)c(OCCOCP(=O)(O)O)n1
IC50: 1.2 nM
--
Compound: Nc1nc(OCCOCP(=O)(O)O)cc(=O)n1CCOCP(=O)(O)O
IC50: 0.993 nM
--
Compound: Cc1c(N)nc(N)nc1OCCOCP(=O)(O)O
IC50: 1.2 nM
--
Compound: O=c1[nH]c(=O)n([C@H]2C[C@H](O)[C@]3(CO)C[C@H]23)cc1I
IC50: 275000 nM
--
Compound: Nc1cc(SCCOCP(=O)(O)O)nc(N)n1
IC50: 0.104 nM
--
Compound: Nc1nc(N)c(C2CC2)c(OCCOCP(=O)(O)O)n1
IC50: 1.2 nM
--
Compound: Nc1cc(OCCOCP(=O)(O)O)nc(N)n1
IC50: 0.0246 nM
--
Compound: Nc1nc(O)cc(NC2CC2)n1
IC50: 2.41 nM
--
Compound: Nc1nc(N)c(Cc2ccccc2)c(OCCOCP(=O)(O)O)n1
IC50: 1.2 nM
--
Compound: Nc1cc(OC[C@H](CO)OCP(=O)(O)O)nc(N)n1
IC50: 0.0048 nM
--
Compound: CC(C)OP(=O)(COCCOc1cc(N)ncn1)OC(C)C
IC50: 1.2 nM
--
Compound: Nc1nc(NC2CC2)cc(OCCOCP(=O)(O)O)n1
IC50: 0.789 nM
--
Compound: Nc1nc(N)n(CCOCP(=O)(O)O)c(=O)c1-c1ccccc1
IC50: 1.2 nM
--
Compound: Nc1nc2c(ncn2/C=C2\CC2(CO)CO)c(=O)[nH]1
IC50: 380000 nM
--
Compound: CC(C)OP(=O)(COCCSc1cc(N)nc(N)n1)OC(C)C
IC50: 1.1 nM
--
Compound: Nc1nc(OCCOCP(=O)(O)O)cc(OCCOCP(=O)(O)O)n1
IC50: 0.596 nM
--
Compound: C=CCc1c(N)nc(N)nc1OCCOCP(=O)(O)O
IC50: 1.2 nM
--
Compound: O=c1[nH]c(=O)n([C@H]2C[C@H](O)[C@]3(CO)C[C@H]23)cc1/C=C/Br
IC50: 6410 nM
--
Compound: Nc1ncnc2c1ncn2CCOCP(=O)(O)O [ADEFOVIR]
IC50: 0.024 nM
--
Compound: N#CCc1c(N)nc(N)n(CCOCP(=O)(O)O)c1=O
IC50: 1.2 nM
--
Compound: C=CCc1c(N)nc(N)n(CCOCP(=O)(O)O)c1=O
IC50: 1.2 nM
--
Compound: Cc1cn([C@H]2C[C@H](O)[C@]3(CO)C[C@H]23)c(=O)[nH]c1=O [(NORTH)-METHANOCARBATHYMIDINE]
IC50: 120 nM
--
Compound: O=c1[nH]c(=O)n([C@H]2C[C@H](O)[C@]3(CO)C[C@H]23)cc1Br
IC50: 1230 nM
--
Compound: Nc1cc(O)nc(SCCOCP(=O)(O)O)n1
IC50: 1.42 nM
--
Compound: Nc1nc(N)n(CCOCP(=O)(O)O)c(=O)c1C1CC1
IC50: 1.2 nM
--
Compound: Nc1cc(OCCOCP(=O)(O)O)ncn1
IC50: 6430 nM
--
Compound: COc1nc(N)nc2c1ncn2/C=C1/CC1(CO)CO
IC50: 361000 nM
--
Compound: Cc1nn([C@H]2C[C@H](O)[C@@H](CO)S2)c(=O)nc1O
IC50: 18000 nM
--
Compound: Nc1cc(=O)n(CCOCP(=O)(O)O)cn1
IC50: 1.61 nM
--
Compound: Cc1c(N)nc(N)n(CCOCP(=O)(O)O)c1=O
IC50: 1.2 nM
--
Compound: Nc1nc(N)n(CCOCP(=O)(O)O)c(=O)c1CC(=O)O
IC50: 1.2 nM
--
Compound: Nc1ccn(/C=C2/CC2(CO)CO)c(=O)n1
IC50: 448000 nM
--
Compound: O=c1[nH]c(=O)n([C@H]2C[C@H](O)[C@@H](CO)O2)cc1/C=C/Br [BRIVUDINE]
IC50: 48000 nM
